Here's what we have: MIC numbers for E. coli (wild-type) BW25113.
measurement.label: MIC

1. CN[C@H](CC(C)C)C(=O)N[C@H]1C(=O)N[C@@H](CC(N)=O)C(=O)N[C@H]2C(=O)N[C@H]3C(=O)N[C@H](C(=O)N[C@H](C(=O)NCCCCNC(=O)c4ccc(O)c(O)c4Cl)c4cc(O)cc(O)c4-c4cc3ccc4O)[C@H](O)c3ccc(c(Cl)c3)Oc3cc2cc(c3O[C@@H]2O[C@H](CO)C(O)C(O)[C@H]2O[C@H]2CC(C)(N)[C@H](O)[C@H](C)O2)Oc2ccc(cc2Cl)[C@H]1O (stereo partly shown) [Compound 5] : 8 µg/mL
2. CN[C@H](CC(C)C)C(=O)N[C@H]1C(=O)N[C@@H](CC(N)=O)C(=O)N[C@H]2C(=O)N[C@H]3C(=O)N[C@H](C(=O)N[C@H](C(=O)NCCCCCNC(=O)c4ccc(O)c(O)c4Cl)c4cc(O)cc(O)c4-c4cc3ccc4O)[C@H](O)c3ccc(c(Cl)c3)Oc3cc2cc(c3O[C@@H]2O[C@H](CO)C(O)C(O)[C@H]2O[C@H]2CC(C)(N)[C@H](O)[C@H](C)O2)Oc2ccc(cc2Cl)[C@H]1O (stereo partly shown) [Compound 6] : 64 µg/mL
3. CN[C@H](CC(C)C)C(=O)N[C@H]1C(=O)N[C@@H](CC(N)=O)C(=O)N[C@H]2C(=O)N[C@H]3C(=O)N[C@H](C(=O)N[C@H](C(=O)NCCCCCCNC(=O)c4ccc(O)c(O)c4Cl)c4cc(O)cc(O)c4-c4cc3ccc4O)[C@H](O)c3ccc(c(Cl)c3)Oc3cc2cc(c3O[C@@H]2O[C@H](CO)C(O)C(O)[C@H]2O[C@H]2CC(C)(N)[C@H](O)[C@H](C)O2)Oc2ccc(cc2Cl)[C@H]1O (stereo partly shown) [Compound 7] : 64 µg/mL
4. CNC(CC(C)C)C(=O)N[C@H]1C(=O)N[C@@H](CC(N)=O)C(=O)N[C@H]2C(=O)N[C@H]3C(=O)N[C@H](C(=O)N[C@@H](C(=O)NCc4cn(CCNC(=O)c5ccc(O)c(O)c5Cl)nn4)c4cc(O)cc(O)c4-c4cc3ccc4O)[C@H](O)c3ccc(c(Cl)c3)Oc3cc2cc(c3OC2O[C@H](CO)C(O)C(O)[C@H]2O[C@H]2CC(C)(N)[C@H](O)C(C)O2)Oc2ccc(cc2Cl)[C@H]1O (stereo partly shown) [Compound 19] : > 64 µg/mL
